This listing pairs compounds with measured Activity.
biological target: Arachidonate 5-lipoxygenase-activating protein (Homo sapiens); assay: Inhibition of 5-lipoxygenase in A23187-stimulated human neutrophils assessed as residual activity by measuring product formation at 1 uM preincubated 15 mins measured after 10 mins relative to control

[
  {
    "compound": "CC(C)Cc1ccc(C(C)c2nc3ccccc3n2C(=O)c2cccc(Cl)c2)cc1 (racemic)",
    "Activity (%)": 92.2
  },
  {
    "compound": "CC(C)Cc1ccc(C(C)c2nc3ccccc3n2Cc2ccc(C(C)(C)C)cc2)cc1 (racemic)",
    "Activity (%)": 98.3
  },
  {
    "compound": "CCOc1ccc(Cn2c(C(C)c3ccc(CC(C)C)cc3)nc3ccccc32)cc1OCC (racemic)",
    "Activity (%)": 96.1
  },
  {
    "compound": "CC(C)Cc1ccc(C(C)c2nc3ccccc3n2CC(=O)O)cc1 (racemic)",
    "Activity (%)": 135
  },
  {
    "compound": "CC(C)Cc1ccc(C(C)c2nc3ccccc3n2C(=O)c2ccccc2Cl)cc1 (racemic)",
    "Activity (%)": 104
  },
  {
    "compound": "CC(C)Cc1ccc(C(C)c2nc3cc(OCc4ccc5ccccc5n4)ccc3n2Cc2ccccc2Cl)cc1 (racemic)",
    "Activity (%)": 72
  },
  {
    "compound": "COC(=O)Cn1c(C(C)c2ccc(CC(C)C)cc2)nc2ccccc21 (racemic)",
    "Activity (%)": 86
  }
]

----------
Biological target: Arachidonate 5-lipoxygenase-activating protein (Homo sapiens) (UniProt P20292)
Sequence (whole entry): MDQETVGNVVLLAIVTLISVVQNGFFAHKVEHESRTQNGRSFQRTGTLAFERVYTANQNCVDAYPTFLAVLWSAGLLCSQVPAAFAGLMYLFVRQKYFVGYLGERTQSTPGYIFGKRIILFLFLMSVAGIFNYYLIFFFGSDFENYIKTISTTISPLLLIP
Experiment: Inhibition of 5-lipoxygenase in A23187-stimulated human neutrophils assessed as residual activity by measuring product formation at 10 uM preincubated 15 mins measured after 10 mins relative to control
This listing pairs compounds with measured Activity.
recorded.metric: Activity (%)

[
  {
    "compound": "COc1ccccc1Cn1c(C(C)c2ccc(CC(C)C)cc2)nc2ccccc21 (racemic)",
    "assay.value": 9.2
  },
  {
    "compound": "CC(C)Cc1ccc(C(C)c2nc3cc(Cl)ccc3n2Cc2ccccc2Cl)cc1 (racemic)",
    "assay.value": 18.1
  },
  {
    "compound": "CC(C)Cc1ccc(C(C)c2nc3ccccc3n2Cc2ccccc2C#N)cc1 (racemic)",
    "assay.value": 43.5
  },
  {
    "compound": "CC(C)Cc1ccc(C(C)c2nc3ccccc3n2Cc2ccncc2)cc1 (racemic)",
    "assay.value": 74.1
  },
  {
    "compound": "CC(C)Cc1ccc(C(C)c2nc3ccccc3n2Cc2ccc(Cl)cc2Cl)cc1 (racemic)",
    "assay.value": 24.6
  },
  {
    "compound": "CC(=O)Oc1ccccc1C(=O)n1c(C(C)c2ccc(CC(C)C)cc2)nc2ccccc21 (racemic)",
    "assay.value": 94.4
  },
  {
    "compound": "COc1ccc(Cn2c(C(C)c3ccc(CC(C)C)cc3)nc3ccccc32)cc1 (racemic)",
    "assay.value": 63
  },
  {
    "compound": "CC(C)Cc1ccc(C(C)c2nc3ccccc3n2Cc2ccccn2)cc1 (racemic)",
    "assay.value": 85.3
  },
  {
    "compound": "CC(C)Cc1ccc(C(C)c2nc3ccccc3n2Cc2ccc(C(F)(F)F)cc2)cc1 (racemic)",
    "assay.value": 83.9
  },
  {
    "compound": "COC(=O)c1cccc(Cn2c(C(C)c3ccc(CC(C)C)cc3)nc3ccccc32)c1 (racemic)",
    "assay.value": 109
  },
  {
    "compound": "CC(=O)Oc1ccccc1Cn1c(C(C)c2ccc(CC(C)C)cc2)nc2ccccc21 (racemic)",
    "assay.value": 8.4
  },
  {
    "compound": "CC(C)Cc1ccc(C(C)c2nc3ccccc3n2Cc2ccc(C#N)cc2)cc1 (racemic)",
    "assay.value": 100
  },
  {
    "compound": "CC(C)Cc1ccc(C(C)c2nc3ccccc3n2Cc2ccccc2C(F)(F)F)cc1 (racemic)",
    "assay.value": 4.89
  },
  {
    "compound": "CC(C)Cc1ccc(C(C)c2nc3ccccc3n2Cc2ccc(C(C)C)cc2)cc1 (racemic)",
    "assay.value": 83.8
  },
  {
    "compound": "CC(C)Cc1ccc(C(C)c2nc3ccccc3n2Cc2cccc(F)c2)cc1 (racemic)",
    "assay.value": 71.1
  },
  {
    "compound": "CC(C)Cc1ccc(C(C)c2nc3ccccc3n2C(=O)c2ccccc2)cc1 (racemic)",
    "assay.value": 88.7
  },
  {
    "compound": "CC(C)Cc1ccc(C(C)c2nc3ccccc3n2Cc2ccc3ccccc3n2)cc1 (racemic)",
    "assay.value": 113
  },
  {
    "compound": "COC(=O)c1ccc(Cn2c(C(C)c3ccc(CC(C)C)cc3)nc3ccccc32)cc1 (racemic)",
    "assay.value": 99.8
  },
  {
    "compound": "CC(C)Cc1ccc(C(C)c2nc3ccccc3n2Cc2ccccc2O)cc1 (racemic)",
    "assay.value": 84.8
  },
  {
    "compound": "CC(C)Cc1ccc(C(C)c2nc3ccccc3n2Cc2ccc(F)cc2)cc1 (racemic)",
    "assay.value": 65.8
  }
]

----------
target: UniProt P20292; experiment: Inhibition of 5-lipoxygenase in A23187-stimulated human neutrophils assessed as residual activity by measuring product formation at 10 uM preincubated 15 mins measured after 10 mins relative to control
Doc: threshold 20% (exclusive). Items with Activity beneath it return MET; others return NOT MET.

[
  {
    "compound": "CC(C)Cc1ccc(C(C)c2nc3cc(OCc4ccccn4)ccc3n2Cc2ccccc2Cl)cc1 (racemic)",
    "label.class": "MET"
  },
  {
    "compound": "CC(C)Cc1ccc(C(C)c2nc3ccccc3n2Cc2ccc(I)cc2)cc1 (racemic)",
    "label.class": "NOT MET"
  },
  {
    "compound": "Cc1ccccc1Cn1c(C(C)c2ccc(CC(C)C)cc2)nc2ccccc21 (racemic)",
    "label.class": "MET"
  },
  {
    "compound": "Cc1ccc(C(C)c2nc3ccccc3n2Cc2ccccc2Cl)cc1 (racemic)",
    "label.class": "NOT MET"
  },
  {
    "compound": "COc1ccc2c(c1)nc(C(C)c1ccc(CC(C)C)cc1)n2Cc1ccccc1Cl (racemic)",
    "label.class": "MET"
  }
]

----------
molecular target: Arachidonate 5-lipoxygenase-activating protein (Homo sapiens) (UniProt P20292); assay: Inhibition of 5-lipoxygenase in A23187-stimulated human neutrophils assessed as residual activity by measuring product formation at 10 uM preincubated 15 mins measured after 10 mins relative to control

[
  {
    "compound": "CC(C)Cc1ccc(C(C)c2nc3cc(O)ccc3n2Cc2ccccc2Cl)cc1 (racemic)",
    "assayed.target": "Arachidonate 5-lipoxygenase-activating protein (Homo sapiens) (UniProt P20292)",
    "units.of.measure": "%",
    "Activity": 4.5
  },
  {
    "compound": "CC(C)Cc1ccc(C(C)(C)c2nc3ccccc3n2Cc2ccccc2Cl)cc1",
    "assayed.target": "Arachidonate 5-lipoxygenase-activating protein (Homo sapiens) (UniProt P20292)",
    "units.of.measure": "%",
    "Activity": 33.3
  },
  {
    "compound": "CC(C)Cc1ccc(C(C)c2nc3ccccc3n2Cc2ccccc2F)cc1 (racemic)",
    "assayed.target": "Arachidonate 5-lipoxygenase-activating protein (Homo sapiens) (UniProt P20292)",
    "units.of.measure": "%",
    "Activity": 43.9
  },
  {
    "compound": "CC(C)Cc1ccc(Cc2nc3ccccc3n2Cc2ccccc2Cl)cc1",
    "assayed.target": "Arachidonate 5-lipoxygenase-activating protein (Homo sapiens) (UniProt P20292)",
    "units.of.measure": "%",
    "Activity": 25.6
  },
  {
    "compound": "CC(C)Cc1ccc(C(C)c2nc3ccccc3n2Cc2ccc(Br)cc2)cc1 (racemic)",
    "assayed.target": "Arachidonate 5-lipoxygenase-activating protein (Homo sapiens) (UniProt P20292)",
    "units.of.measure": "%",
    "Activity": 79.7
  },
  {
    "compound": "CC(C)Cc1ccc(C(C)c2nc3ccccc3n2Cc2ccc(Cl)cc2)cc1 (racemic)",
    "assayed.target": "Arachidonate 5-lipoxygenase-activating protein (Homo sapiens) (UniProt P20292)",
    "units.of.measure": "%",
    "Activity": 47.7
  },
  {
    "compound": "CC(C)Cc1ccc(C(C)c2nc3cc(Cl)ccc3n2Cc2ccccc2)cc1 (racemic)",
    "assayed.target": "Arachidonate 5-lipoxygenase-activating protein (Homo sapiens) (UniProt P20292)",
    "units.of.measure": "%",
    "Activity": 44.9
  },
  {
    "compound": "CC(C)Cc1ccc(C(C)c2nc3ccccc3n2Cc2ccccc2)cc1 (racemic)",
    "assayed.target": "Arachidonate 5-lipoxygenase-activating protein (Homo sapiens) (UniProt P20292)",
    "units.of.measure": "%",
    "Activity": 19.4
  },
  {
    "compound": "CC(c1ccc(C(=O)c2ccccc2)cc1)c1nc2ccccc2n1Cc1ccccc1Cl (racemic)",
    "assayed.target": "Arachidonate 5-lipoxygenase-activating protein (Homo sapiens) (UniProt P20292)",
    "units.of.measure": "%",
    "Activity": 90.2
  }
]
